meta.source: ChEMBL document CHEMBL4689842

Please go through the items and note down their Population Mitotic Cells (%).
Test system: Fibroblast
Assay: Multiplex assay against human fibroblast
Assay type: toxicity, cell-based
Details: 48 h, 1 µM, compound concentration 1 uM, replicate 1

# annotated cases, reported Population Mitotic Cells (%) shown
compound=CC[C@H](C)C(=O)O[C@H]1C[C@@H](C)C=C2C=C[C@H](C)[C@H](CC[C@@H]3C[C@@H](O)CC(=O)O3)[C@H]21 outcome_measure="Population Mitotic Cells (%)" recorded_result=33%
compound="CC(C)NCC(O)COc1ccc(CCOCC2CC2)cc1.Cl (stereo not given) [BETAXOLOL HYDROCHLORIDE]" outcome_measure="Population Mitotic Cells (%)" recorded_result=23%
compound=COc1cc(-n2cnc3cc(-c4ccc(Cl)cc4)sc3c2=O)ccc1OCCN1CCCC1 outcome_measure="Population Mitotic Cells (%)" recorded_result=18%
compound=CN(C)CC#Cc1ccc(OCCCc2sc(N3CCc4cccc(C(=O)Nc5nc6ccccc6s5)c4C3)nc2C(=O)O)c(F)c1 outcome_measure="Population Mitotic Cells (%)" recorded_result=31%

Please fill in: Population Mitotic Cells (%) reported for Cc1cc(C)cc(-c2cnc3cc(Cl)c(-c4cccc(O)c4)cc3c2OCCCN)c1 = 35%

---

Test system: Fibroblast
Assay: Incucyte cell viability with human fibroblast; note: filed as whole numbers so only -1 and 0 and 1 occur
Assay type: toxicity, cell-based
Conditions: 6 h, 10 µM, compound concentration 10 uM, replicate number 1, timepoint 6 hours
Please go through the items and note down their Growth Rate.
One number for each entry.

compound="C[C@H](Cc1cc2c(c(C(N)=O)c1)N(CCCO)CC2)NCCOc1ccccc1OCC(F)(F)F [SILODOSIN]" outcome_measure="Growth Rate" recorded_result=0
compound="CCOCCn1cc(C(=O)Nc2ccc(-n3nc(-c4cccnc4)cc3C(F)(F)F)cn2)ccc1=O [BI 1935]" outcome_measure="Growth Rate" recorded_result=1
compound=Cc1cc(C)cc(-c2cnc3cc(Cl)c(-c4cccc(O)c4)cc3c2OCCCN)c1 outcome_measure="Growth Rate" recorded_result=0
compound="CNCCC(Oc1ccc(C(F)(F)F)cc1)c1ccccc1.Cl (centres undefined) [FLUOXETINE HYDROCHLORIDE]" outcome_measure="Growth Rate" recorded_result=1
compound="C[C@@H](NCCCc1cccc(C(F)(F)F)c1)c1cccc2ccccc12.Cl [CINACALCET HYDROCHLORIDE]" outcome_measure="Growth Rate" recorded_result=0

Quick one: give me Growth Rate for each item below, same order please.
1. C=CC(=O)Nc1ccc2ncnc(Nc3ccc(OCc4cccc(F)c4)c(Cl)c3)c2c1.Cc1ccc(S(=O)(=O)O)cc1
2. O=C(Nc1cnc(Oc2ccc(F)cc2)nc1)N1CCc2ncccc2[C@@H]1c1ccc(F)cc1 [BAY-899]
3. Cc1c(-c2ccc(O)cc2)n(Cc2ccc(OCCN3CCCCCC3)cc2)c2ccc(O)cc12 [BAZEDOXIFENE]
4. CCn1cc(-c2cccc(C(F)(F)F)c2)c2sc(C(=N)NC3CCS(=O)(=O)CC3)cc2c1=O
5. c1cn2cc(-c3ccc4cn[nH]c4c3)nc(Nc3ccc(N4CCOCC4)cc3)c2n1 [ENTOSPLETINIB]

1: 0; 2: 1; 3: 0; 4: 0; 5: 0

Quick one: give me Growth Rate for each item below, same order please.
1. CNC(=NCCSCc1csc(N=C(N)N)n1)NC#N [TIOTIDINE]
2. Cc1c(OCc2cccc(-c3ccc(C(=O)O)cc3)c2)cc2c(c1C)C(=O)C(C1CCCC1)C2 (centres undefined)
3. Cc1cc(Nc2nccc(C)n2)cc(-c2cnc([C@@]3(O)CC[C@H](C(=O)O)C(C)(C)C3)s2)c1 [MRL-SYKi]
4. Cc1nc(C(=O)N2CCC[C@H]2Cc2nnc(-c3ccccc3)o2)c(-c2ccccc2F)s1
5. C[C@H]1CC(=O)Nc2cc(C(=O)NCCC3CC3)ccc2N1C(=O)N1CC2CC2C1 (some centres undefined)
6. COc1cc(-n2cnc3cc(-c4ccc(Cl)cc4)sc3c2=O)ccc1OCCN1CCCC1
7. O=C(NCc1ccccc1)c1ccc(S(=O)(=O)NCc2ccccc2)cc1

1. 1
2. 0
3. 0
4. 0
5. 0
6. 0
7. 0
